Numbers sourced from PubChem BioAssay (NCI).

System: KM12 colon
assay: NCI tumour cell line growth inhibition, 48 h
TGI overview

Answered examples (5):
[in] State the recorded TGI for this entry: CC(C)(C)C(=O)CP(=O)(O)O
[out] > 100 µM

[in] Looking for the measured TGI of O=C(O)CCSC(=O)Nc1ccccc1F , can you help?
[out] > 100 µM

[in] Look at this molecule and give its reported TGI. C=C1C(=O)O[C@H]2[C@H](OC(C)=O)[C@@H](C)CCC/C(C)=C/CC[C@@]3(C)O[C@@H]3C[C@@H]12
[out] 18.8 µM

[in] GET /values?readout=TGI&item= COc1ccccc1C1c2cc3c(cc2OC(O)(CO)C1C(=O)O)OCO3 (stereo not given) (tested in a mixture with another compound)
[out] > 100 µM

[in] Which TGI value belongs to Cc1ccc2c(c1)C(C)Cc1c(Cl)ncnc1N2C (stereo not given) ?
[out] 7.98 µM

***
[in] Fill blank: measured TGI of the molecule COc1ccc(C(=O)/C=C/c2ccc3c(c2)OCO3)c(OCc2ccccc2)c1 is ____.
[out] > 100 µM

[in] # lookup: TGI of Cc1ccc(NC(=O)C(=O)CC(=O)c2c(C)n([O-])c3ccccc3[n+]2=O)cc1
[out] > 100 µM

[in] Return reported TGI; argument: COC(=O)C1=C(C(=O)OC)SC(=C(Cl)C(=S)Nc2ccccc2O)S1
[out] > 50 µM

[in] Fill blank: measured TGI of the molecule Cc1ccc(/C=C2\CN(C)CC3C2=NN(c2ccccc2)C3c2ccc(C)cc2)cc1 (stereo not given) is ____.
[out] > 100 µM

[in] Form field: reported TGI of N#CCCN(c1ccc(C=Nc2ccccc2Cl)cc1)S(=O)(=O)c1ccccc1
[out] > 100 µM

---

Tested on: UACC-257 melanoma
assay: NCI tumour cell line growth inhibition, 48 h
Listing: TGI of selected compounds

These solved cases illustrate the format of a correct answer.
[in] So what's the measured TGI for this one? CN(Cc1cccc2ccccc12)Cc1cccc2ccccc12
[out] > 100 µM

[in] Recorded TGI for CC(C)(C)NCC(O)c1ccc(O)c(CO)n1 (centres undefined) , please?
[out] > 100 µM

[in] TGI lookup needed for Cc1ccc(N=Nc2ccc(N)cc2C)c(S(N)(=O)=O)c1 , thanks.
[out] > 100 µM

[in] So what's the measured TGI for this one? Nc1[nH]c(=S)c2c(N)n[nH]c2c1C(=O)Nc1ccccc1
[out] > 100 µM

[in] May I ask what TGI has been recorded for Cn1ccc2c(C(=O)c3ccccc3)cccc2c1=O ?
[out] > 100 µM

[in] Requested read-out: TGI. Entry: O=c1[nH]c(=O)c2cc(C3CC(O)C(CO)O3)ccc2[nH]1 (centres undefined)
[out] > 100 µM

New cases:
[in] Which TGI value belongs to COC(=O)CCC1CCC(c2cc(F)ccc2F)(S(=O)(=O)c2ccc(Cl)cc2)CC1 (centres undefined) ?
[out] > 100 µM

[in] Please give the measured TGI for this compound: O=C1C=CC2(O)OCCN(CCO)C2=C1 (centres undefined) (tested in a mixture with another compound)
[out] > 100 µM

[in] Look up TGI: Cc1cc(Cc2cc(C)cc(C(C)(C)C)c2O)c(O)c(Cc2cc(C)cc(C(C)(C)C)c2O)c1
[out] 5.3 µM

[in] I am curious: what TGI value has been reported for COC(=O)c1cc2cc3c(c(O)c2c(=O)o1)O[C@@]1(Oc2c(O)c4c(c(O)c2[C@H]1OC1CC(OC)C(O)C(C)O1)C(=O)C=C(OC)C4=O)[C@H](O)C3 (some centres undefined) ?
[out] 14.1 µM

[in] Which TGI reading was recorded for the compound CN1C(=O)C(CC(=O)O)NC1=S (centres undefined) ?
[out] > 100 µM

---

Tested on: IGROV1 ovarian
assay: NCI tumour cell line growth inhibition, 48 h; in the data active = GI50 below about 0.43 µM; inactive = the rest
Hi there, use one of these labels in your reply, thanks! active, inactive

[in] Hello, I am checking results. What call was entered for O=S(=O)(c1cccc2c(Cl)cccc12)N1CCCNCC1 ?
[out] inactive

[in] GET /call?item= Nc1nc(N)c2c(n1)NC(c1ccc(F)cc1)C1CCc3ccccc3C1=N2 (stereo not drawn) returns the recorded outcome of this test.
[out] inactive

[in] Can you look up the reported call for Oc1ccccc1C=Nc1nc(SCc2ccccc2)nc2[nH]ncc12 for me?
[out] inactive

[in] Please state the recorded outcome for this molecule: CNCCNc1c2c(c(NCCNC)c3[nH]ccc13)C(=O)c1ccccc1C2=O
[out] active

[in] Can you look up the reported call for COc1ccc(S(=O)(=O)Nc2cc(/C=C\c3cc(OC)c(OC)c(OC)c3)ccc2OC)cc1 for me?
[out] active

[in] Fill in: this test's call for COc1cc(/C=N/NC(=O)c2cnn3c2NC(c2ccccc2)C3)ccc1Oc1ccccc1 (stereo not drawn) is ___
[out] inactive

New cases:
[in] Could you kindly confirm the outcome this assay logged for O=C1C=CC[C@H](/C=C/c2ccccc2)O1 ?
[out] inactive

[in] // return assay outcome for C=C(C)[C@@H]1CC[C@]2(C)[C@H](CC=C3[C@@H]4[C@@H](C)[C@H](C)CC[C@]4(C(N)=O)CC[C@]32C)[C@@]1(C)CCC#N
[out] inactive

[in] Outcome? FC(F)(F)c1ccc(C#Cc2ccccc2C#Cc2ccccc2)cc1
[out] inactive

---

Tested on: SNB-19 CNS
assay: NCI tumour cell line growth inhibition, 48 h
resultType: TGI (µM)
Report the figure in µM without appending any unit label.

Examples with answers:
[in] Find the recorded TGI belonging to CC(=O)c1cccc(Nc2nc3ccc(Cl)cc3c3[nH]c4ccccc4c23)c1 and report it.
[out] 48.6

[in] Any idea what its TGI is? The compound is O=c1nc(NC(c2ccccc2)(c2ccccc2)c2ccccc2)ccn1CCNCCn1ccc(NC(c2ccccc2)(c2ccccc2)c2ccccc2)nc1=O
[out] 23.4

Below: the item to evaluate.
[in] If you can, please state the reported TGI value of CCC[CH2][Sn]([CH2]CCC)([CH2]CCC)[O]C(=O)c1ccc(Cl)cc1Cl .
[out] 0.359

---

This listing pairs compounds with measured TGI.
Tested on: HS 578T breast
assay: NCI tumour cell line growth inhibition, 48 h

[in] // query TGI value for entry Cc1cc2sc(C)[n+](CCCOS(=O)(=O)[O-])c2cc1C
[out] > 100 µM

Continuing:
[in] Would you mind telling me what TGI value was observed for COC(=O)C1CCCN1C(=O)[C@@H]1CCCN1C(=O)[C@H](Cc1c[nH]c2ccccc12)NC(=S)Nc1cc(C(F)(F)F)cc(C(F)(F)F)c1 (some centres undefined) ?
[out] 11.4 µM

---

Test system: MOLT-4 leukemia
assay: NCI tumour cell line growth inhibition, 48 h
TGI listing for selected compounds.

[in] Requested field: TGI. Item: Cn1ccc2c(C(=O)c3ccccc3)cccc2c1=O
[out] > 100 µM

[in] Which TGI is listed for CC(C)(C)OC(=O)N1CCC2(C)CC(=O)CC=C12 (stereo unspecified) ?
[out] > 100 µM

[in] Given the compound COC(=O)CN1SC2(SC13C(C)(C)C(=O)C3(C)C)C(C)(C)C(=O)C2(C)C , what is its reported TGI?
[out] > 100 µM

[in] I have this compound here, CC(=O)c1cccc(Nc2nc3ccc(Cl)cc3c3[nH]c4ccccc4c23)c1 , and I need its recorded TGI.
[out] > 100 µM

[in] I would be grateful if you could share the reported TGI for CCN(CC)CCn1c2ccccc2c(=O)c2c(O)ccc(O)c21 .
[out] 69.3 µM

[in] Given the entry CC1(c2cccc(Cl)c2)CC(c2cccc(Cl)c2)=C(C#N)C(=C(C#N)C#N)N1 (stereo unspecified) , report its measured TGI.
[out] 57.3 µM

[in] Any idea what its TGI is? The compound is COC(=O)C1=C(C(=O)OC)SC(=C(Cl)C(=S)Nc2ccccc2O)S1
[out] > 50 µM

[in] Consider the compound O=C(c1ccccc1)[C@@H]1C[C@H](Sc2ccccc2)c2cc(Cl)ccc2N1 and give its measured TGI.
[out] 60.9 µM

[in] Requested read-out: TGI. Entry: Oc1ccccc1C=Nc1nc(SCc2ccccc2)nc2[nH]ncc12
[out] > 100 µM

[in] Form field: reported TGI of CCOC(=O)[C@@H]1CCN2CN(c3ccc(OC)cc3)N=C(c3ccccc3)[C@@]12c1ccccc1
[out] > 100 µM

[in] May I ask what TGI has been recorded for C=CCN1C(=O)/C(=C/c2ccc(C)cc2)NC1=S ?
[out] > 100 µM

---

Tested on: 786-0 renal
assay: NCI tumour cell line growth inhibition, 48 h
resultType: TGI

[in] Suppose we examine the molecule O=C(c1ccccc1)C(Br)C(Br)c1cccc([N+](=O)[O-])c1 (stereo not given) ; what TGI value has been reported?
[out] 3.07 µM

[in] // lookup TGI for O=S(=O)(c1cccc2c(Cl)cccc12)N1CCCNCC1
[out] 23.1 µM

[in] // TGI lookup, key: COc1ccccc1N1CCN(CCc2c[nH]c3cc4c(cc23)OCO4)CC1
[out] > 100 µM

[in] What value of TGI has been reported for the following molecule? CN(C)CC1C(=O)O[C@H]2[C@H]1CC/C(COC(=O)c1cc3ccccc3[nH]1)=C\CC[C@@]1(C)O[C@@H]21 (stereo not given in full)
[out] 4.88 µM

[in] Need TGI, item O=C(Cc1ccc(Cl)cc1)Nc1ccc2oc(-c3ccccc3)nc2c1
[out] > 100 µM

[in] Entry CNC(=O)CC1NC(=O)c2csc(n2)-c2ccc(-c3nc(C4=NC(C(=O)N5CCCC5C(N)=O)CO4)cs3)nc2-c2csc(n2)-c2csc(n2)C(C(C)C)NC(=O)CNC(=O)c2csc(n2)C(C(C)C)NC(=O)c2nc1sc2C (stereo not given) : reported TGI = ?
[out] > 25 µM

[in] Record request: TGI value, item CN(Cc1cccc2ccccc12)Cc1cccc2ccccc12
[out] > 100 µM

[in] What value of TGI has been recorded for this entry: O=C(NNCc1ccco1)c1cc2ccccc2[nH]1
[out] > 100 µM

[in] What measured TGI goes with OC(c1cc(-c2ccc(Cl)cc2)nc2ccccc12)C1CCCCN1 (stereo not given) ?
[out] 3.92 µM

[in] Item under review: COc1ccc(OC2OC(COC(c3ccccc3)(c3ccc(OC)cc3)c3ccc(OC)cc3)C(O)C(O)C2O)cc1 (stereo not given) . Reported TGI?
[out] 5.87 µM

[in] Could you tell me which TGI is on file for CN(C)CCNC(=O)c1cccc2[nH]c(-c3cccnc3)nc12 ?
[out] 55.6 µM
